experiment: Tested for its inhibitory activity against the enzyme chorismate mutase (CM) in Escherichia coli T-protein
I'd be grateful if you could share measured Ki for these entries.
Hi, when you answer, please include the unit after the number. Thanks!

Reference set (3 entries):
>  <MOLECULE>
C=C(O[C@@H]1C=C(C(=O)O)CCC1O)C(=O)O (some centres undefined)

>  <Ki>
430 µM

$$$$
>  <MOLECULE>
O=C(O)[C@]12C[C@H]3C[C@H](C[C@H](C3)C1)C2

>  <Ki>
430 µM

$$$$
>  <MOLECULE>
C=C(O[C@@H]1C=C(C(=O)O)C(O)C(O)[C@H]1O)C(=O)O (some centres undefined)

>  <Ki>
410 µM

$$$$

Query: Need Ki of O=P(O)(O)C12C[C@H]3C[C@@H](C1)C[C@@H](C2)C3 , thanks.
Result: 200 µM
